Source listed as patent US4576956A.

Test system: Candida albicans M-9
READOUT: MIC (µg/mL)
# number only, unit µg/mL dropped from output

These recorded examples may help you get a feel for the data.
- Cc1cc(N(C)CC#CI)on1: 0.4
- Cc1noc(NCC#CI)c1C: 0.8
- CC(C)c1cc(N(C)CC#CI)on1: 0.8

Determine from records and report MIC for `Cc1cc(N(C)CC#CI)no1` 1.6

Respond only with MIC recorded for `CCN(CC#CI)c1onc(C)c1C` 1.6

Given `CN(CC#CI)c1cc(-c2cccs2)no1` , respond with its MIC. 0.8

For the molecule `Cc1onc(N(C)CC#CI)c1Cl` , report MIC. 1.6

State, in one line, measured MIC of `CN(CC#CI)c1cc(-c2ccccc2)no1` 3.1

###

Test system: Candida albicans M-9
Binarize MIC at 0.8 µg/mL; below is yes, at or above is no.

Check out these entries, answers already filled in.
- Cc1noc(N(C)CC#CI)c1Cl: yes
- CC(C)c1noc(N(C)CC#CI)c1Cl: no
- Clc1c(-c2ccccc2)noc1NCC#CI: yes
- CCc1noc(N(C)CC#CI)c1Cl: no

Does this molecule meet the criterion MIC < 0.8 µg/mL? Clc1ccccc1C(c1ccccc1)(c1ccccc1)n1ccnc1 [Ref. Comp., Clotrimazole, reference compound] no

###

# Candida albicans M-9: MIC values follow
Please make sure the unit comes right after the number.

Check out these entries, answers already filled in.
* CCN(CC#CI)c1cc(C)no1 | 0.8 µg/mL
* CN(CC#CI)c1cc(-c2ccco2)no1 | 0.8 µg/mL
* Cc1noc(N(C)CC#CI)c1C | 0.8 µg/mL
* CCc1cc(N(C)CC#CI)on1 | 0.8 µg/mL
* Cc1noc(C)c1NCC#CI | 0.8 µg/mL

Given `CN(CC#CI)c1cc(C2CC2)no1` , report its MIC on Candida albicans M-9. 0.8 µg/mL
